target: TbDHFR (Trypanosoma brucei brucei, UniProt Q27783); assay: Spectrophotometric inhibition assay with recombinant TbDHFR; type: biochemical
Sequence (Q27783 28-238 limits assumed): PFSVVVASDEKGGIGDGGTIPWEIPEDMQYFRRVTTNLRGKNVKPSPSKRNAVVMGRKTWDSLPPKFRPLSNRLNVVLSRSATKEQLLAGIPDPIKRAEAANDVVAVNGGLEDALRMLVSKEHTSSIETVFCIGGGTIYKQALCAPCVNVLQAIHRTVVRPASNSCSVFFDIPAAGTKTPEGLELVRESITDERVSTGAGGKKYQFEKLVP
pIC50: −log10 of the molar value.
Assay endpoint: pIC50

>>> numeric_result("C=C(CO)C(=O)O[C@H]1CC(=C)[C@@H]2C[C@H](O)C(=C)[C@@H]2[C@H]2OC(=O)C(=C)[C@@H]21")
5.15

* * *

biological target: TbPTR1 (Trypanosoma brucei brucei); assay: Spectrophotometric inhibition assay with recombinant TbPTR1; type: biochemical; details: 100 µM compound; NADPH 150 µM, folic acid 8 µM; read-out: TbPTR1 Inhibition at 100 µM (%)
Sequence (O76290 1-268): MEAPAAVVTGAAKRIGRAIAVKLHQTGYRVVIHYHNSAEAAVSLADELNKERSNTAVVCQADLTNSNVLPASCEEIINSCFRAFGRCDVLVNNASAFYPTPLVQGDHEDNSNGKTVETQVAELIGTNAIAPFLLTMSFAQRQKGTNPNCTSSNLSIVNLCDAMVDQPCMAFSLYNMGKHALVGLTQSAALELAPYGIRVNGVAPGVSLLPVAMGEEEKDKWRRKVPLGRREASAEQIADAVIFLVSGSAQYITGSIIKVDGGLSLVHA
Assay endpoint: inhibition at 100 µM (%)

>>> numeric_result("C=C1C(=O)O[C@@H]2/C=C(/CO)C3=CC(=O)[C@@](C)(C[C@@H](OC(=O)/C(C)=C\\C)[C@@H]12)O3")
79.9
>>> numeric_result("C=C1C(=O)O[C@@H]2/C=C(\\CO)CC/C=C(\\C)C[C@H](OC(=O)C(=C)[C@H](O)CO)[C@@H]12")
63.9
>>> numeric_result("C=C1C(=O)OC2C=C(C)C(OC(C)=O)CC=C(C)CC(OC(=O)C(=CCO)CO)C12 (centres unmarked) [Compound 5, (Z)-eucannabinolide]")
58.1
>>> numeric_result("C=C1C(=O)O[C@H]2[C@H]1[C@H](OC(=O)/C(=C/COC(=O)C(O)C(C)C)CO)C[C@]1(C)[C@@H]2[C@H](C)C(=O)C[C@H]1O (some centres unmarked)")
14.2
>>> numeric_result("C=C1C(=O)OC2C=C(C)C(O)CC=C(C)CC(OC(=O)C(=CCOC(=O)C(O)C(C)CC)CO)C12 (centres unmarked)")
26.7
>>> numeric_result("C=C1C(=O)OC2C=C(C)C(OC(=O)C(O)C(C)C)CC=C(C)CC(OC(=O)C(=CCO)CO)C12 (centres unmarked)")
33.1
>>> numeric_result("C=C1C(=O)OC2C=C(C)C(O)CC=C(C)CC(OC(=O)C(=CCOC(=O)C(O)C(C)C)CO)C12 (centres unmarked)")
28.5
>>> numeric_result("C=C1C(=O)OC2C1CC(OC(=O)C(C)C(C)O)C(C)=CCCC1(C)OC21 (centres unmarked)")
73.1
